Biological target: T1, human HER3-Fc (R&D Systems, 348-RB) (human, UniProt P21860 20-643)
T1 construct: Bought; also called hHER3-Fc; Fc-HER3; Fc part of the bought chimera not given, not described
Experiment: HRG competition alphascreen
MEASURE: IC50
Give the figure together with its unit, number first.

Exercise: Dear colleague, I am looking for the recorded IC50 of the following binder: HER3MS00044 (VHH, 04C07 basic + L93A; also called HER3MS0044) VHH: EVQLVESGGGLVQPGGSLRLSCAASGFTFSSYPMSWVRQAPGKGPAWVSTVSPGGITTSYADSVKGRFTISRDNSKNTLYLQMNSLRPEDTAVYYCARDLNNRGQGTLVTVSS
Solution: 1 nM

Exercise: Dear colleague, I am looking for the recorded IC50 of the following binder: HER3MS00045 (VHH, 04C07 basic + A46E + L93A; also called HER3MS0045) VHH: EVQLVESGGGLVQPGGSLRLSCAASGFTFSSYPMSWVRQAPGKGPEWVSTVSPGGITTSYADSVKGRFTISRDNSKNTLYLQMNSLRPEDTAVYYCARDLNNRGQGTLVTVSS
Solution: 4.91 nM

Exercise: Dear colleague, I am looking for the recorded IC50 of the following binder: HER3MS00043 (VHH, 04C07 basic + A46E; also called HER3MS0043) VHH: EVQLVESGGGLVQPGGSLRLSCAASGFTFSSYPMSWVRQAPGKGPEWVSTVSPGGITTSYADSVKGRFTISRDNSKNTLYLQMNSLRPEDTAVYYCLRDLNNRGQGTLVTVSS
Solution: 1.02 nM

Exercise: Dear colleague, I am looking for the recorded IC50 of the following binder: HER3MS00042 (VHH, 04C07 + A14P, A74S, K83R, Q108L; also called HER3MS0042; 04C07 basic variant) VHH: EVQLVESGGGLVQPGGSLRLSCAASGFTFSSYPMSWVRQAPGKGPAWVSTVSPGGITTSYADSVKGRFTISRDNSKNTLYLQMNSLRPEDTAVYYCLRDLNNRGQGTLVTVSS
Solution: 0.31 nM

Reference for the values: patent US20130136748A1
